B1: glmS ribozyme (parent)
chain: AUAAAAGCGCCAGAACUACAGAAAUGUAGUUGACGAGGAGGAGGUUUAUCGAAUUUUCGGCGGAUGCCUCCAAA

- Variants of: B1
- assay_text: self-cleavage kobs at 10000 uM GlcN6P; higher = faster cleavage; RNA array
- assay_setup: with glucosamine-6-phosphate
Variants at the floor of the assay were thinned out.
Quick rule for you: self-cleavage kobs at 10000 uM GlcN6P at 0.0003 s⁻¹ or higher means 1, lower means -1.

Inquiry: hey, is self-cleavage kobs at 10000 uM GlcN6P for this one >= 0.0003 s⁻¹? A14U C16U
Reply text: 1

Inquiry: Given the entry A48C U55A , answer whether its self-cleavage kobs at 10000 uM GlcN6P meets or surpasses 0.0003 s⁻¹.
Reply text: -1

Inquiry: Does the variant G7U G29C G43U G51A have recorded self-cleavage kobs at 10000 uM GlcN6P that is 0.0003 s⁻¹ or more?
Reply text: -1

Inquiry: Is it the case that G29U U47A has self-cleavage kobs at 10000 uM GlcN6P reaching or exceeding 0.0003 s⁻¹?
Reply text: 1

Inquiry: Determine whether measured self-cleavage kobs at 10000 uM GlcN6P meets or exceeds 0.0003 s⁻¹ for G7U A36C G59U
Reply text: -1

Inquiry: Reported self-cleavage kobs at 10000 uM GlcN6P reaches at least 0.0003 s⁻¹ for G9A U30C G35U U55G ?
Reply text: -1

Inquiry: Has U49C G63A C67G a recorded self-cleavage kobs at 10000 uM GlcN6P greater than or equal to 0.0003 s⁻¹?
Reply text: -1

Inquiry: Answer whether self-cleavage kobs at 10000 uM GlcN6P of G51U A53U is greater than or equal to 0.0003 s⁻¹.
Reply text: -1

Inquiry: Is the recorded value of self-cleavage kobs at 10000 uM GlcN6P equal to or greater than 0.0003 s⁻¹ for this variant? G29U U56G
Reply text: 1

Inquiry: Decide: is the reported value of self-cleavage kobs at 10000 uM GlcN6P for U31C U46G equal to or greater than 0.0003 s⁻¹?
Reply text: 1

Inquiry: Check the entry U30A A39U : does self-cleavage kobs at 10000 uM GlcN6P equal or exceed 0.0003 s⁻¹?
Reply text: 1

Inquiry: Check this variant for self-cleavage kobs at 10000 uM GlcN6P at or above 0.0003 s⁻¹: A12C U31C G43U G44U
Reply text: -1

Inquiry: Check this variant for self-cleavage kobs at 10000 uM GlcN6P at or above 0.0003 s⁻¹: G7A A48U U49G
Reply text: -1

Inquiry: Does A42G C70G have a reported self-cleavage kobs at 10000 uM GlcN6P of at least 0.0003 s⁻¹?
Reply text: -1

Inquiry: Would you say C68A U69C shows self-cleavage kobs at 10000 uM GlcN6P at minimum 0.0003 s⁻¹?
Reply text: -1

Inquiry: Given the entry A14U A33U C34G G35C U69A , answer whether its self-cleavage kobs at 10000 uM GlcN6P meets or surpasses 0.0003 s⁻¹.
Reply text: -1

Inquiry: Can U47A A53C be said to have self-cleavage kobs at 10000 uM GlcN6P at or above 0.0003 s⁻¹?
Reply text: 1

Inquiry: I'd appreciate it if you could say whether C50A G59C C70U has self-cleavage kobs at 10000 uM GlcN6P at least equal to 0.0003 s⁻¹.
Reply text: -1

Inquiry: Is reported self-cleavage kobs at 10000 uM GlcN6P greater than or equal to 0.0003 s⁻¹ here: C11U U65G C68U
Reply text: -1

Inquiry: Would you say G37A U69C shows self-cleavage kobs at 10000 uM GlcN6P at minimum 0.0003 s⁻¹?
Reply text: 1

Inquiry: // inclusive: self-cleavage kobs at 10000 uM GlcN6P at least 0.0003 s⁻¹? input: G32C A48C U55C G59A G63A
Reply text: -1

Inquiry: Exam item: decide whether the reported self-cleavage kobs at 10000 uM GlcN6P for G9A C71G is at least 0.0003 s⁻¹.
Reply text: -1
